# system tested: human α7 nAChRs transiently expressed in Xenopus laevis oocytes (Homo sapiens (Human))
# Sequence (P36544 23-502 limits assumed): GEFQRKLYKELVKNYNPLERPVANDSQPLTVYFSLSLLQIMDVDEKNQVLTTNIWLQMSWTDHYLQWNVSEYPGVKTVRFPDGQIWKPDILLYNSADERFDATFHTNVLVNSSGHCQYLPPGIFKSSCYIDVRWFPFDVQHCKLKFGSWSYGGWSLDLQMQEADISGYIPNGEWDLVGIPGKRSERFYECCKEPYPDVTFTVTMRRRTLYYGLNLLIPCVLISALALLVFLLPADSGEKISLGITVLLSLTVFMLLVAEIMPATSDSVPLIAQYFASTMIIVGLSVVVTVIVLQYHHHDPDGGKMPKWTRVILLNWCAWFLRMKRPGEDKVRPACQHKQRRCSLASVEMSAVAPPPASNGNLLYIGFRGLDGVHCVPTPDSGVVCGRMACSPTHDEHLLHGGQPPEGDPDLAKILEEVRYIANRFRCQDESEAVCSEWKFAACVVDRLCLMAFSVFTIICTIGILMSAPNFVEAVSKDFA
# experiment description: Oocyte electrophysiology screen (TEVC)
# Type: cell-based
# condition set: 0.01 mM test compound, peak current relative to 0.2 mM ACh
Structures can show the parent of a compound that is named as a salt.
reported endpoint: % ACh @ 10 μM Oocyte (% ACh)
// units = % ACh; emit number, no label

Solved cases (6 shown):
| compound | system tested | measured value |
| --- | --- | --- |
| Cc1cc2cc(C(=O)N[C@@H]3C4CCN(CC4)C3(C)C)ccc2o1 [(R)-38, hydrochloride] | human α7 nAChRs transiently expressed in Xenopus laevis oocytes (Homo sapiens (Human)) | 339 |
| CC1(C)[C@H](NC(=O)c2cc3ccc(F)c(Cl)c3s2)C2CCN1CC2 [(R)-114, hydrochloride] | human α7 nAChRs transiently expressed in Xenopus laevis oocytes (Homo sapiens (Human)) | 703 |
| CC1(C)[C@H](NC(=O)c2cc3ccc(F)c(C(F)(F)F)c3s2)C2CCN1CC2.Cl [(R)-211] | human α7 nAChRs transiently expressed in Xenopus laevis oocytes (Homo sapiens (Human)) | 100 |
| O=C(N[C@@H]1C2CCN(CC2)C12CC2)c1cc2ccc(F)c(Cl)c2s1 [(R)-158, hydrochloride] | human α7 nAChRs transiently expressed in Xenopus laevis oocytes (Homo sapiens (Human)) | 180 |
| O=C(NC1C2CCN(CC2)C12CC2)c1ccc2occc2c1 (single isomer, unassigned; enantiomer1) [59a] | human α7 nAChRs transiently expressed in Xenopus laevis oocytes (Homo sapiens (Human)) | 823 |
| O=C(NC1C2CCN(CC2)C12CC2)c1cc2cc(F)ccc2s1 (single isomer, unassigned; enantiomer1) [64a] | human α7 nAChRs transiently expressed in Xenopus laevis oocytes (Homo sapiens (Human)) | 511 |

# context switch: different compound, same % ACh @ 10 μM Oocyte
input: Requested field: % ACh @ 10 μM Oocyte. Item: CC1(C)[C@H](NC(=O)c2cc3cccc(C(F)(F)F)c3s2)C2CCN1CC2 [(R)-7, hydrochloride]
output: 466
